These data points were gathered from the supplement of paper PMC6555819.

# System: RXRa homodimer (NR concentration 180 nM)
# method.summary: PBM binding z-score (relative to random genomic background probes); higher = stronger binding; sequences stand for … in GC…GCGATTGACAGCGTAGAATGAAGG
sequences and their reported PBM binding z-score
measurement.kind: PBM binding z-score

[[record]]
biosequence = "GGAACGACGGCAAAGTTGATAGCATCTGTCGACG"
data_value = 0.157

[[record]]
biosequence = "GGAACGAGGGCAAGTAGATAGCAGAGTTTGATGG"
data_value = 0.888

[[record]]
biosequence = "CCTGCTAGGTCAATGGTCAGTTAAAGCAGCTCGC"
data_value = 2.11

[[record]]
biosequence = "ACTAGCAGGCCATGTTTGGGTCACTCAAACAAAG"
data_value = 0.614

[[record]]
biosequence = "TCTCGCAGGACACGAAAGGTCAGAGCTCGACATC"
data_value = 4.07

[[record]]
biosequence = "CCTAGTTGGTCAAGGTTACACACGCTATAGGTAC"
data_value = 1.48


###

# System: PPARg DBDmut:RXRa IVT, anti-PPARg (DBD mutation: PPARg1 K132A/R137A, NR concentration 270 nM, RXRa partner concentration 90 nM)
# method.summary: PBM binding z-score (relative to random genomic background probes); higher = stronger binding; sequences stand for … in GC…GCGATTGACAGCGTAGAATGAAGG
Tag: TRUE if measured PBM binding z-score is not below 0.4, FALSE if it is.

[[record]]
biosequence = "TCTCGGAGGACACGAAAGTCAGAGCTTTCCAGAG"
label = "FALSE"

[[record]]
biosequence = "TGAATGAGGTTAAAGATCAGCGAACGTGGCGTCG"
label = "TRUE"

[[record]]
biosequence = "CGCCAAAGTTCAACTAAGGTAACGTAAAGCACGC"
label = "TRUE"

[[record]]
biosequence = "TCATATAGGTAAAAGGTAAAAGTCGGTGTGGTAA"
label = "FALSE"

[[record]]
biosequence = "CGTCCAAGGTCAGTGCTAGGTCAGTGAAAGCATT"
label = "FALSE"

[[record]]
biosequence = "CCTTGGAGGACAACAGGAGGTCAGAGCTGCCAGA"
label = "FALSE"

[[record]]
biosequence = "TCAGACAGGTGAAGGTAACTCAGGTACGCAGTCG"
label = "FALSE"

[[record]]
biosequence = "CCTACTGGGCAATCAGGTCATTGATATCAACGTT"
label = "FALSE"

[[record]]
biosequence = "CGAACGAGCGCATGAGTTGATAGCAAATGCCGAT"
label = "FALSE"

[[record]]
biosequence = "CATACAGGGTCAGCCAGGCCAGAGTAGGGACGGC"
label = "TRUE"

[[record]]
biosequence = "AGAACGAGGGCAATGATTTGATAGCACGGGTGGC"
label = "TRUE"

[[record]]
biosequence = "GCTTGTAGATCAAGGTTAAGAACGACTAAGCTAA"
label = "TRUE"

[[record]]
biosequence = "ATCGAATGGTCGACGAGGTGAGTATACACCGTTT"
label = "FALSE"

[[record]]
biosequence = "TCGAGTAGGTTACCAATCGGGCATTCAGCTTTCT"
label = "FALSE"

[[record]]
biosequence = "GGAACTAGGGCAAGTTGATAGCAGAGTTTGATGG"
label = "TRUE"

[[record]]
biosequence = "CGTCAAACTTCAAGGTAACGTAACAGAAAGCAGC"
label = "FALSE"

[[record]]
biosequence = "CCAGACAGGTGAGAAGGTAACTCGGCCTCGATTA"
label = "FALSE"

[[record]]
biosequence = "AGAGTGAGGTTATACGTAGATCAGGGAAGAAAGT"
label = "TRUE"

[[record]]
biosequence = "TCTGCTAGGTCAACGATGGTCAACTAATCTGCTA"
label = "FALSE"

[[record]]
biosequence = "ATATGTAGGCTAAGGGTCATTCAGGTTGGTTCGC"
label = "TRUE"

[[record]]
biosequence = "TAGCCTAGGTCAGATCGGGCTAGTATACGCTATA"
label = "FALSE"

[[record]]
biosequence = "ACAGACAGGTGAGTGAAGGTAACGCAGCTGGACG"
label = "FALSE"

[[record]]
biosequence = "GGAATGAGGGCAAAGTTGATAGCATCTGTCGACG"
label = "TRUE"

[[record]]
biosequence = "TAGCCTAGGTCACGCGGGCCAGTATAGTGTCGGC"
label = "FALSE"

[[record]]
biosequence = "TCATATCGGTAAACAGGTGAAAGTCCGTAAGTTA"
label = "FALSE"

[[record]]
biosequence = "TGATATAGGTAAAAGGTGAAAGTCGGTGTGGTAA"
label = "TRUE"

[[record]]
biosequence = "CAAACTAGGTCAAGGTTAAAGTCGGTTTGTGCCA"
label = "TRUE"

[[record]]
biosequence = "TGAATGAGGCTAAAGATCAGGGAACGTGGCGTCG"
label = "FALSE"

[[record]]
biosequence = "TTACCAAGGTGAAAGGTCTTTGATGCACGCCTTG"
label = "FALSE"

[[record]]
biosequence = "CGAACGAAGGCATGAGTTGATAGCAAATGCCGAT"
label = "FALSE"

[[record]]
biosequence = "CCTACTGGGCCACGAAAGGTCATTGTTTCAGTGA"
label = "TRUE"

[[record]]
biosequence = "TTACCAAGGTGAAAGCTCGTTGATGCACGCCTTG"
label = "FALSE"

[[record]]
biosequence = "CCAGACAGGTGAGAAGGCAACTCAGCCTCGATTA"
label = "FALSE"

[[record]]
biosequence = "CATACAGGGTCAGGTAGGCCAGAGTAGGGACGGC"
label = "TRUE"

[[record]]
biosequence = "CCTAGCAGGCCAGGGCCACTCAAGCATTTCGCTT"
label = "FALSE"

[[record]]
biosequence = "ATATGTAGGTTAGCTGGGGTCAGTCAGACTAGGC"
label = "TRUE"

[[record]]
biosequence = "GATGCTAGGTCAACTGATGGTCAGCTAAAGCTCG"
label = "FALSE"

[[record]]
biosequence = "ACTATTACTTGACTTAGGGCAACCGATACGACGC"
label = "TRUE"

[[record]]
biosequence = "CAACCTAGGTCAGGGCCAGTATAGGAGGAACGTT"
label = "FALSE"

[[record]]
biosequence = "TCTATTAATTGAAGGGCAACCGACGAGTCCGTTT"
label = "FALSE"

[[record]]
biosequence = "ATCTCTAGGTAAGACTCAGTTCAGTGAAGAACGC"
label = "TRUE"

[[record]]
biosequence = "ATCGAAAGGTCGAGGTGACTATAGAGAAAGGGAA"
label = "TRUE"

[[record]]
biosequence = "AGAATGAGGTTACCAATGATCAGGGAAACGCTTG"
label = "TRUE"

[[record]]
biosequence = "ACTCGGAGGACAAAGGTCAGAGCGACGCCAGTGA"
label = "FALSE"

[[record]]
biosequence = "TCAGACAGGTGAACGTAACTCAGGTACGCAGTCG"
label = "FALSE"

[[record]]
biosequence = "CCGACTGGGGCACGGTTACCATAACGCACAGCCA"
label = "FALSE"

[[record]]
biosequence = "CCTATTAGTTGACCATATGGGCAACCGAAGCTCG"
label = "TRUE"

[[record]]
biosequence = "ACTCGGAGGACAAAGTTCAGAGCTACGCCAGTGA"
label = "FALSE"

[[record]]
biosequence = "ACTAGTTGGTCAGCTGAGGGCACACACAATTCGG"
label = "FALSE"

[[record]]
biosequence = "ATCGAAAGGTCGTGAGGTGAGTATACAGAAAGGC"
label = "TRUE"

[[record]]
biosequence = "TCTAGTTGGTCAAAGGTCCCACACTCGAAATGCG"
label = "TRUE"

